Values were extracted from ChEMBL document CHEMBL1144829.

# TARGET DESC: Cholesteryl ester transfer protein (Homo sapiens)
# Sequence (P11597 whole entry): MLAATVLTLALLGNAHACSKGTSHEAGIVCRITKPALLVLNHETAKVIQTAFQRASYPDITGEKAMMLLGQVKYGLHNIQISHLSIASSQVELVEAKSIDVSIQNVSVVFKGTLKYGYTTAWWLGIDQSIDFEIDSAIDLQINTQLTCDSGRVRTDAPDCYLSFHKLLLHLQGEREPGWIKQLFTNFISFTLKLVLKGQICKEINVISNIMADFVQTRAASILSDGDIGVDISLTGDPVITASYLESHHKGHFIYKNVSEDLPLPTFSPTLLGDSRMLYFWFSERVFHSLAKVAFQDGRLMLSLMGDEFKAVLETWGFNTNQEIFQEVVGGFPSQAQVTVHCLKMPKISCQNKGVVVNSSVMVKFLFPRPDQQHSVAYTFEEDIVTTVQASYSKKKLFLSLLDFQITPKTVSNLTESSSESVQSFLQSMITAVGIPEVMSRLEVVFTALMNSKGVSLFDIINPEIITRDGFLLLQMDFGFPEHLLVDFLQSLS
# PROCEDURE DETAILS: Inhibition of human CETP by scintillation proximity assay
pIC50: −log10 of the molar value.
MEASUREMENT LABEL: pIC50

Cc1ccc(OCC(=O)Nc2ccc(-c3nc4cc(C)cc(C)c4o3)cc2)c(C)c1	6.85

1: Cc1ccc2oc(-c3ccc(NC(=O)COc4ccccc4C)cc3)nc2c1
2: Cc1cc(C)c2oc(-c3ccc(NC(=O)COc4ccc(Cl)cc4C)cc3)nc2c1
3: Cc1cc(C)c2oc(-c3ccc(NC(=O)COc4ccccc4C)cc3)nc2c1
4: N#Cc1ccc2oc(-c3ccc(NC(=O)COc4ccc(Cl)c(C(F)(F)F)c4)cc3)nc2c1
Problem: Number of compounds to sort: 4. Sort criterion: pIC50, ascending. Use the labels to give the requested order.
Solution: 1, 3, 2, 4
